# PROTOCOL: Stability of the analytes in rat plasma samples under storage conditions
# Type: physicochemical
# EXPERIMENTAL_CONDITIONS: spiked concentration 320 ng/mL, n = 6
PROPERTY_LABEL: Measured, Room temperature for 4 h (ng/mL)
One number for each entry, in ng/mL.

Q) For the compound O=c1cc(-c2ccc(O)cc2)oc2cc(O)cc(O)c12 , what Measured, Room temperature for 4 h is on record?
A) 310.13

Q) For the compound O=c1c(O)c(-c2ccc(O)c(O)c2)oc2cc(O[C@@H]3O[C@H](CO)[C@@H](O)[C@H](O)[C@H]3O)cc(O)c12 [Quercetin-7-O-β-D-glucoside, quercetin-7-O-β-D-glucoside] , what Measured, Room temperature for 4 h is on record?
A) 315.81

Q) For the compound COc1ccc(-c2cc(=O)c3c(O)cc(O)cc3o2)cc1 , what Measured, Room temperature for 4 h is on record?
A) 313.68

Q) For the compound COc1c(O[C@@H]2O[C@H](C(=O)O)[C@@H](O)[C@H](O)[C@H]2O)cc(O)c2c(=O)cc(-c3ccccc3)oc12 [Wogonoside, wogonoside] , what Measured, Room temperature for 4 h is on record?
A) 327.84

Lab note: each compound below needs its Measured, Room temperature for 4 h filled in.
1. O=c1c(O)c(-c2ccc(O)c(O)c2)oc2cc(O)cc(O)c12
2. O=c1cc(-c2ccc(O)cc2)oc2cc(O)c(O)c(O)c12
3. COc1c(O)cc2oc(-c3ccc(O)cc3)cc(=O)c2c1O

A)
[298.43, 316.24, 315.17]

====

# PROTOCOL: Stability of the analytes in rat plasma samples under storage conditions
# Assay type: physicochemical
# EXPERIMENTAL_CONDITIONS: spiked concentration 40 ng/mL, n = 6
PROPERTY_LABEL: Measured, Autosampler for 12 h (ng/mL)
Numbers only, in ng/mL.

These solved cases illustrate the format of a correct answer.
Q) For the molecule O=C(O)[C@H]1O[C@@H](Oc2cc(O)c3c(=O)cc(-c4ccccc4)oc3c2)[C@H](O)[C@@H](O)[C@@H]1O [Chrysin-7-O-β-D-glucuronide, chrysin-7-O-β-D-glucuronide] , what Measured, Autosampler for 12 h is on record?
A) 39.57

Q) For the molecule O=c1cc(-c2ccccc2)oc2cc(O[C@@H]3O[C@H](CO[C@@H]4O[C@H](CO)[C@@H](O)[C@H](O)[C@H]4O)[C@@H](O)[C@H](O)[C@H]3O)c(O)c(O)c12 , what Measured, Autosampler for 12 h is on record?
A) 39.10

Q) For the molecule O=c1cc(-c2ccccc2)oc2cc(O)c(O)c(O)c12 , what Measured, Autosampler for 12 h is on record?
A) 39.31

Turning now to a further molecule:
Q) For the molecule O=c1cc(-c2ccccc2)oc2cc(O[C@@H]3O[C@H](CO)[C@@H](O)[C@H](O)[C@H]3O)c(O)c(O)c12 , what Measured, Autosampler for 12 h is on record?
A) 39.49

====

# PROTOCOL: Stability of the analytes in rat plasma samples under storage conditions
# Type: physicochemical
# EXPERIMENTAL_CONDITIONS: spiked concentration 20 ng/mL, n = 6
Answer No if Measured, -80°C for 7 days is under 20 ng/mL, and Yes if it is 20 ng/mL or more.

As a guide, the following entries are already answered.
Q) Would you say O=c1c(O)c(-c2ccc(O)c(O)c2)oc2cc(O)cc(O)c12 shows Measured, -80°C for 7 days at minimum 20 ng/mL?
A) No

Q) Would you say COc1c(O[C@@H]2O[C@H](C(=O)O)[C@@H](O)[C@H](O)[C@H]2O)cc(O)c2c(=O)cc(-c3ccccc3)oc12 [Wogonoside, wogonoside] shows Measured, -80°C for 7 days at minimum 20 ng/mL?
A) Yes

Proceed to the following item.
Q) Would you say COc1ccc(-c2cc(=O)c3c(O)cc(O)cc3o2)cc1 shows Measured, -80°C for 7 days at minimum 20 ng/mL?
A) No

====

# PROTOCOL: Pharmacokinetic study in rats after oral administration of OS extract (UHPLC-QqQ-MS/MS of plasma)
# Assay type: in vivo, rat
# EXPERIMENTAL_CONDITIONS: male; rat plasma, oral 3 g/kg OS extract, n = 6, mean ± SD; read-out: AUC(0-∞)
# Experimental: The UHPLC-QqQ-MS/MS system consisted of a 1290 UHPLC and a 6470 mass spectrometer (Agilent Technologies). Chromatographic separation was realized on utilizing an ACQUITY UPLC BEH C18 column (2.1 × 100 mm, 1.7 μm) maintained at 35 °C. […]
PROPERTY_LABEL: AUC(0-inf) (ng·h/mL)
One number for each entry, in ng·h/mL.

These solved cases illustrate the format of a correct answer.
Q) For the compound O=c1cc(-c2ccccc2)oc2cc(O)c(O)c(O)c12 , what AUC(0-inf) is on record?
A) 4600

Q) For the compound O=c1cc(-c2ccccc2)oc2cc(O[C@@H]3O[C@H](CO[C@@H]4O[C@H](CO)[C@@H](O)[C@H](O)[C@H]4O)[C@@H](O)[C@H](O)[C@H]3O)c(O)c(O)c12 , what AUC(0-inf) is on record?
A) 2230

Q) For the compound O=C(O)[C@H]1O[C@@H](Oc2cc(O)c3c(=O)cc(-c4ccccc4)oc3c2)[C@H](O)[C@@H](O)[C@@H]1O [Chrysin-7-O-β-D-glucuronide, chrysin-7-O-β-D-glucuronide] , what AUC(0-inf) is on record?
A) 44900

Q) For the compound O=C(O)[C@H]1O[C@@H](Oc2cc3oc(-c4ccccc4)cc(=O)c3c(O)c2O)[C@H](O)[C@@H](O)[C@@H]1O , what AUC(0-inf) is on record?
A) 264000

Q) For the compound O=c1cc(-c2ccc(O)cc2)oc2cc(O)c(O)c(O)c12 , what AUC(0-inf) is on record?
A) 95.6

Lab note: each compound below needs its AUC(0-inf) filled in.
1. O=c1cc(-c2ccccc2)oc2cc(O[C@@H]3O[C@H](CO)[C@@H](O)[C@H](O)[C@H]3O)c(O)c(O)c12
2. COc1c(O[C@@H]2O[C@H](C(=O)O)[C@@H](O)[C@H](O)[C@H]2O)cc2oc(-c3ccccc3)cc(=O)c2c1O [Oroxylin A-7-O-β-D-glucuronide, oroxylin A-7-O-β-D-glucuronide]

A)
4060
11600

====

# PROTOCOL: Stability of the analytes in rat plasma samples under storage conditions
# Type: physicochemical
# EXPERIMENTAL_CONDITIONS: spiked concentration 40 ng/mL, n = 6
# Experimental: The bioanalytical method validation was evaluated for specificity, linearity, sensitivity, precision and accuracy, recovery, matrix effect, and stability to ensure compliance with the U.S. Food and Drug Administration (FDA) guidance on precise quantitative analysis ([Center for Drug Evaluation and Research of the U.S., 2018]). […] The lower limit of quantification (LLOQ) was defined as the concentration at which a signal to noise ratio of up to 10 was achievable. […]
PROPERTY_LABEL: Measured, -80°C for 7 days

These solved cases illustrate the format of a correct answer.
Q) For the compound O=c1cc(-c2ccccc2)oc2cc(O[C@@H]3O[C@H](CO)[C@@H](O)[C@H](O)[C@H]3O)c(O)c(O)c12 , what Measured, -80°C for 7 days is on record?
A) 41.12 ± 0.77 ng/mL

Q) For the compound O=c1cc(-c2ccccc2)oc2cc(O)c(O)c(O)c12 , what Measured, -80°C for 7 days is on record?
A) 38.12 ± 3.24 ng/mL

Lab note: each compound below needs its Measured, -80°C for 7 days filled in.
1. O=c1cc(-c2ccccc2)oc2cc(O[C@@H]3O[C@H](CO[C@@H]4O[C@H](CO)[C@@H](O)[C@H](O)[C@H]4O)[C@@H](O)[C@H](O)[C@H]3O)c(O)c(O)c12
2. O=C(O)[C@H]1O[C@@H](Oc2cc(O)c3c(=O)cc(-c4ccccc4)oc3c2)[C@H](O)[C@@H](O)[C@@H]1O [Chrysin-7-O-β-D-glucuronide, chrysin-7-O-β-D-glucuronide]

A)
37.76 ± 3.31 ng/mL
37.32 ± 1.14 ng/mL

====

# PROTOCOL: Pharmacokinetic study in rats after oral administration of OS extract (UHPLC-QqQ-MS/MS of plasma)
# Assay type: in vivo, rat
# EXPERIMENTAL_CONDITIONS: male; rat plasma, oral 3 g/kg OS extract, n = 6, mean ± SD; read-out: Cmax
PROPERTY_LABEL: Cmax (ng/mL)
One number for each entry, in ng/mL.

Lab note: each compound below needs its Cmax filled in.
1. O=C(O)[C@H]1O[C@@H](Oc2cc3oc(-c4ccccc4)cc(=O)c3c(O)c2O)[C@H](O)[C@@H](O)[C@@H]1O
2. O=C(O)[C@H]1O[C@@H](Oc2cc(O)c3c(=O)cc(-c4ccccc4)oc3c2)[C@H](O)[C@@H](O)[C@@H]1O [Chrysin-7-O-β-D-glucuronide, chrysin-7-O-β-D-glucuronide]
3. O=c1cc(-c2ccccc2)oc2cc(O[C@@H]3O[C@H](CO[C@@H]4O[C@H](CO)[C@@H](O)[C@H](O)[C@H]4O)[C@@H](O)[C@H](O)[C@H]3O)c(O)c(O)c12

A)
13400
3320
1990

// provenance: paper PMC12589998
